Consider the following compounds; for each one, report its bioavailability.
assay: Oral bioavailability in rat; assay type: ADME, organism-based; conditions: in vivo
Give the quantity in %, number only.

Quick note, bioavailability for Cc1ccn2c(-c3cccc(-c4ccccc4C#N)c3)cnc2n1 landed at 42

Quick note, bioavailability for CC(C)(O)c1ccn2c(-c3ccc(F)c(-c4cccnc4)c3)cnc2n1 landed at 77

Quick note, bioavailability for N#Cc1cc(F)ccc1-c1cc(-c2cnc3nc(C(F)(F)F)ccn23)ccc1F landed at 53

Quick note, bioavailability for Cc1ccn2c(-c3cccc(-c4ccccc4C#N)c3)cnc2c1 landed at 2

* * *

target: GABA-A receptor; alpha-1/beta-3/gamma-2 (Homo sapiens, UniProt P14867+P18507+P28472); assay: Displacement of [3H]-Ro15-1788 from human recombinant GABAA alpha1 in combination with beta-3-gamma-2 expressed in L(tk-) cells
Sequence (P14867 whole entry): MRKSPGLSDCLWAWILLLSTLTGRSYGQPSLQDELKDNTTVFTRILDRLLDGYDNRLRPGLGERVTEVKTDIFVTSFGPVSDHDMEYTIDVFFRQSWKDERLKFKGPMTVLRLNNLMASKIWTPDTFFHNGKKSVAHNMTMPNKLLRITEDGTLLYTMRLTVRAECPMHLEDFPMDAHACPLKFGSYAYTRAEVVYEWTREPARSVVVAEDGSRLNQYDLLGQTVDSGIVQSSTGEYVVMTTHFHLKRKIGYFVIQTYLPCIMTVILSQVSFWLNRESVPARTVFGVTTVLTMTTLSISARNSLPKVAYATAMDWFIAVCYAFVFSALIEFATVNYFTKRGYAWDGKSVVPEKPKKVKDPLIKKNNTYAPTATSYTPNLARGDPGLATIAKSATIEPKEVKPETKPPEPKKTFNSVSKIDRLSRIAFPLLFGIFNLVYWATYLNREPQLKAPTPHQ
Sequence (P18507 whole entry): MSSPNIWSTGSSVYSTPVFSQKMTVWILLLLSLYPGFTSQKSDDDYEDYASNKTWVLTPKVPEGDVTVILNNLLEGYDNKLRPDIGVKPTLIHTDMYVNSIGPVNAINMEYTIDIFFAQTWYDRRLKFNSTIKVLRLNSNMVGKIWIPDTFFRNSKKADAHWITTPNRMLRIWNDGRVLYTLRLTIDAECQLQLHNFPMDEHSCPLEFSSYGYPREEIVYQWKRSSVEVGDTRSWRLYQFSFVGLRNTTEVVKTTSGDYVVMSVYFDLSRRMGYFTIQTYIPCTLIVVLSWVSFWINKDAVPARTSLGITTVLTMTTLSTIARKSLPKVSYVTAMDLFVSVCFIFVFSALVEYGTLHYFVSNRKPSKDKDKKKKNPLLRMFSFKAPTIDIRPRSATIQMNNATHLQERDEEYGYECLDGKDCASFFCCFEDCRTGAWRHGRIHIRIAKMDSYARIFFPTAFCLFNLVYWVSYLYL
Sequence (P28472 whole entry): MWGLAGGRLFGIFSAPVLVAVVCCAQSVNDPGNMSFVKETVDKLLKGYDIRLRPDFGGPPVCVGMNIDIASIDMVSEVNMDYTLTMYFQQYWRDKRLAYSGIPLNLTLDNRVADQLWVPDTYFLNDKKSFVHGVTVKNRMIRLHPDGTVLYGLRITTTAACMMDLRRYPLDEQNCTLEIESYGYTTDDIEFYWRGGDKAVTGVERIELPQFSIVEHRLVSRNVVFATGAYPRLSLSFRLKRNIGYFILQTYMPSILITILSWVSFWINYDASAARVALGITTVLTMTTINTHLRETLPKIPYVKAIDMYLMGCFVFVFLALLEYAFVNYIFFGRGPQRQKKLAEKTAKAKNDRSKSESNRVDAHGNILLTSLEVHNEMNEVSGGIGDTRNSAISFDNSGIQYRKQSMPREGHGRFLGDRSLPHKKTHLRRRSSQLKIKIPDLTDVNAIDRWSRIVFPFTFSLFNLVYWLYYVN
experimental endpoint: Ki (nM)
Give the quantity in nM, number only.

Entry CCO/N=C(\C)c1ccc2c(c1)ncn2-c1cccc(-c2cccnc2)c1 , tested on GABA-A receptor; alpha-1/beta-3/gamma-2 (Homo sapiens, UniProt P14867+P18507+P28472), has a reported Ki of 1.5

Entry N#Cc1ccc(F)cc1-c1cc(-c2cnc3nc(C(F)(F)F)ccn23)ccc1F , tested on GABA-A receptor; alpha-1/beta-3/gamma-2 (Homo sapiens, UniProt P14867+P18507+P28472), has a reported Ki of 0.65

Entry Cc1ccn2c(-c3cccc(-c4ccccc4C#N)c3)cnc2n1 , tested on GABA-A receptor; alpha-1/beta-3/gamma-2 (Homo sapiens, UniProt P14867+P18507+P28472), has a reported Ki of 0.39

Entry N#Cc1ccccc1-c1cccc(-c2cnc3nc(C(F)(F)F)ccn23)c1F , tested on GABA-A receptor; alpha-1/beta-3/gamma-2 (Homo sapiens, UniProt P14867+P18507+P28472), has a reported Ki of 2.7

Entry Cc1ccn2c(-c3cccc(-c4ccccc4C#N)c3)cnc2c1 , tested on GABA-A receptor; alpha-1/beta-3/gamma-2 (Homo sapiens, UniProt P14867+P18507+P28472), has a reported Ki of 4.5

Entry Cn1ncnc1COc1nn2c(-c3cc(F)ccc3F)nnc2cc1C(C)(C)C , tested on GABA-A receptor; alpha-1/beta-3/gamma-2 (Homo sapiens, UniProt P14867+P18507+P28472), has a reported Ki of 0.8
